Numbers sourced from PubChem BioAssay (NCI).

# run_description: NCI Yeast Anticancer Drug Screen. Data for the cln2 rad14 strain (AID 165);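 note: 0% = growth equal to vehicle treated cultures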
# applied_conditions: S. cerevisiae cln2 rad14 strain, at 5.0 µM (retest, dose inferred, filed as 0.5), hits give high values
The panel holds about 79,000 compounds, 15% with a hit somewhere; the sample as a whole holds those more often.
Label -1 if growth inhibition falls below 30%; label 1 in every other case.

Worked examples, 6 compounds total:
Cn1c2nc3ccccc3c-2nc2ccccc21
1
CCc1[nH]nc(C(N)=O)c1N=NN(C)C
-1
COc1ccc(N2C(=O)CC(Cl)C2=O)cc1 (configuration not stated)
-1
CC(=O)Oc1ccc(N2C(=O)C3c4[nH]c5ccccc5c4C4CCC(C(C)(C)C)CC4C3C2=O)cc1 (configuration not stated)
1
CC1=CCCC2C1(C)CCC(C)C2(C)Cc1cc(O)ccc1O (configuration not stated)
-1
CC(=O)Oc1ccc(C(=O)c2ccccc2)c(O)c1
-1

Asked: Hello, I need to know if `COCCCN(Cc1cc(OC)c(OC)c(OC)c1)C(=S)Nc1cccc(Cl)c1` has measured growth inhibition not below 30%. Thanks!
Given back: 1

Asked: Identify whether the reported growth inhibition of the following compound is 30% or greater: `CCC(=O)Oc1ccc(/C=N/NC(N)=S)nc1`
Given back: -1

Asked: Does the reported growth inhibition for `O=C1c2cccc3cc([N+](=O)[O-])cc(c23)C(=O)N1CCN1CCCC1` fall at or above the 30% mark?
Given back: -1

Asked: Decide: growth inhibition of Clc1c(Cl)c(Cl)c2c(nnn2C2CCCO2)c1Cl (configuration not stated) >= 30%?
Given back: -1

Asked: Decide: is the reported value of growth inhibition for `Cc1ccc(I)cc1N=C=S` equal to or greater than 30%?
Given back: 1

Asked: # check: growth inhibition of `CCCCCCCCCCCCCCCCCCNC(=S)/N=C\C1=C(O)c2ccccc2C1=O` is greater than or equal to 30%
Given back: 1
